These entries and their values trace back to patent US20230115208A1.

Tested on: Mycobacterium tuberculosis Erdman
Experiment: Biofilm inhibition of Mycobacterium tuberculosis (ocular inspection)
Type: cell-based
Details: biofilm inhibition, 25 μM, average of three or more measurements (100/50/0% scoring), read-out: Average % Inhibition at 25 μM
Readout kind: inhibition at 25 µM (%)
Your answer is read as %, so omit the unit and give the number.

Using known records, supply inhibition at 25 µM for O=C(O)[C@@H]1CSc2c(C3CC3)c(Cc3cccc4ccccc34)c(Br)c(=O)n21 62

Query inhibition at 25 µM for O=C(O)c1c(-c2ccsc2)sc2c(C3CC3)c(Cc3cccc4ccccc34)cc(=O)n12 88

Read the entry Cc1ccc(F)c(Cc2cc(=O)n3c(c2C2CC2)SC[C@H]3C(=O)O)c1 and write its reported inhibition at 25 µM. 63

Quickly give me recorded inhibition at 25 µM for O=C(O)C1CSc2c(C3CC3)c(Cc3cccc(C(F)(F)F)c3)cc(=O)n21 (centres unmarked) 100

Output inhibition at 25 µM of O=C(O)c1c(-c2c[nH]nn2)sc2c(C3CC3)c(Cc3cccc4ccccc34)cc(=O)n12 12

Input O=C(O)[C@@H]1CSc2c(C3CC3)c(Cc3cc4ccccc4s3)cc(=O)n21 , output reported inhibition at 25 µM. 100

Look up and report measured inhibition at 25 µM for this entry: CO[C@H]1Sc2c(C3CC3)c(Cc3cccc4ccccc34)cc(=O)n2[C@@H]1C(=O)O 25

For the molecule COc1ccc(Cc2cc(=O)n3c(c2C2CC2)SCC3C(=O)O)c2ccccc12 (centres unmarked) , give its reported inhibition at 25 µM. 100
